Attribution: patent US20250340574A1

# TARGET: CFTR (F508del/MF-HBE cells) (Homo sapiens, UniProt P13569, DEL508-508)
# Construct: human bronchial epithelial (HBE) cells derived from CF subjects heterozygous for F508del and a minimal function CFTR mutation (F508del/MF-HBE); endogenous in cells; host or cells: Primary human bronchial epithelial cells from CF subjects (F508del/MF genotype), differentiated at an air-liquid interface
# Sequence (P13569 with tags, fused parts or gaps DEL508-508): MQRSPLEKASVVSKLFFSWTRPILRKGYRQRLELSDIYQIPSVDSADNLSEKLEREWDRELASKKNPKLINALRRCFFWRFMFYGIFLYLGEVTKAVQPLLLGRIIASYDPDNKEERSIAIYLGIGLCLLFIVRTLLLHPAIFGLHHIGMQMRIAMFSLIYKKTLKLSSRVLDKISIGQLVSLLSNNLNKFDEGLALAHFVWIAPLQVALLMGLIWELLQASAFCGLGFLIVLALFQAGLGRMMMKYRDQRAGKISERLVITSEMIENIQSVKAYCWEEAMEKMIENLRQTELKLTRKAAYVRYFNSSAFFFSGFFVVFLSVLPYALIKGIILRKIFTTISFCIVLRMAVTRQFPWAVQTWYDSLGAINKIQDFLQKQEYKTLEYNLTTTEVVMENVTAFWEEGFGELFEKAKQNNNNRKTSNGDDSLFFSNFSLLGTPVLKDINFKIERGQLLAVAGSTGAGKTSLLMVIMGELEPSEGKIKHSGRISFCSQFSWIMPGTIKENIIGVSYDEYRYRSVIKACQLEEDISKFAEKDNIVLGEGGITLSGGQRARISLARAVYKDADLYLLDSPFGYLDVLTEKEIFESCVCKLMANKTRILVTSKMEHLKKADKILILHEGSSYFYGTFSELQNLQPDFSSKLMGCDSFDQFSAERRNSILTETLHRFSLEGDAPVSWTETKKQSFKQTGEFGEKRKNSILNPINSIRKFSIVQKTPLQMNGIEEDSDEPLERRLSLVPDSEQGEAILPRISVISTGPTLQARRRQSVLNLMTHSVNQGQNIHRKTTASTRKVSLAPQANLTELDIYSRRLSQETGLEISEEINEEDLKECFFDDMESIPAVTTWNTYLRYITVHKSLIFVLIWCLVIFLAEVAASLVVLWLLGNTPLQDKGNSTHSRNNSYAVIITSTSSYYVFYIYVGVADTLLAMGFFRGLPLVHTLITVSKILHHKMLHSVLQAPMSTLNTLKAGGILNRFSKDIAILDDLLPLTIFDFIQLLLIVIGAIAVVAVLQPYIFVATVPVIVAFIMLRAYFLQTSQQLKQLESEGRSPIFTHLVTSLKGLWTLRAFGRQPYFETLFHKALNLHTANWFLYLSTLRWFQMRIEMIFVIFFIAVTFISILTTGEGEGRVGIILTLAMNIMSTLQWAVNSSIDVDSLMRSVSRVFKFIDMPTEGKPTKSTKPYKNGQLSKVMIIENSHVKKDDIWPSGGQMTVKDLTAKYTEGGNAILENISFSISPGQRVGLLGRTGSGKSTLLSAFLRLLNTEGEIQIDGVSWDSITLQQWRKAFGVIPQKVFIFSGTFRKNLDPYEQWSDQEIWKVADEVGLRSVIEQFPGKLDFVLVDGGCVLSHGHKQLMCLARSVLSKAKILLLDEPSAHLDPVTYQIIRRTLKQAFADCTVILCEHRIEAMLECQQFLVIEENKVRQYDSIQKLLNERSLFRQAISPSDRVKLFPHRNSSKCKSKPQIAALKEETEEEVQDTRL
# ASSAY EXPLANATION: Ussing chamber assay of CFTR-mediated short-circuit currents, Assay C (0.026 μM to 25 μM, 6 concentrations)
# Format: cell-based
# APPLIED CONDITIONS: with 33 nM potentiator and 18 μM Tezacaftor, 20% human serum
REPORTED PROPERTY: EC50

# example entries with known answers
COMPOUND: Cc1cccc(C)c1-c1cc2nc(n1)NS(=O)(=O)c1cccc(c1)C(=O)N(Cc1ncc3oc(C(C)(C)C)cc3n1)[C@H](CC13CC(C1)C3)CO2
EC50: 1000 to 3000 nM
--
COMPOUND: Cc1cccc(C)c1-c1cc2nc(n1)NS(=O)(=O)c1cccc(c1)C(=O)N(Cc1cnc3cc(C4(C)CC4)n(C)c3n1)[C@@H](C(C1CCC1)C1CCC1)CO2 (single isomer, unassigned)
EC50: < 1000 nM
--
COMPOUND: Cc1cccc(CC(C)C)c1-c1nc2nc(c1C)OC[C@@H](COC(F)(F)F)N(Cc1cnc3cc(C4CC4)n(C)c3n1)C(=O)c1cccc(c1)S(=O)(=O)N2
EC50: 1000 to 3000 nM
--
COMPOUND: Cc1cccc(C)c1-c1cc2nc(n1)NS(=O)(=O)c1cccc(c1)C(=O)N(Cc1cnc3cc(C4(C(F)(F)F)CC4)n(C)c3n1)[C@H](CC13CC(C1)C3)CO2
EC50: < 1000 nM
--
COMPOUND: Cc1cccc(C)c1-c1cc2nc(n1)NS(=O)(=O)c1cccc(c1)C(=O)N(Cc1cnc3cc(C(C)(C)C(F)(F)F)n(C)c3n1)[C@H](COC(C)C)CO2
EC50: 1000 to 3000 nM
--
COMPOUND: Cc1cccc(C)c1-c1nc2nc(c1C)OC[C@@H](C[C@@H]1CCCO1)N(Cc1cnc3cc(C4(C(F)(F)F)CC4)n(C)c3n1)C(=O)c1cccc(c1)S(=O)(=O)N2
EC50: < 1000 nM
--
COMPOUND: Cc1cccc(C)c1-c1cc2nc(n1)NS(=O)(=O)c1cccc(c1)C(=O)N(Cc1ncc3cc(C4CC4)n(C)c3n1)[C@H](CC1(C)CC1)CO2
EC50: 1000 to 3000 nM
--
COMPOUND: CCc1cccc(CC)c1-c1cc2nc(n1)NS(=O)(=O)c1cccc(c1)C(=O)N(Cc1cnc3oc(C4CC4)cc3n1)[C@H](CC(C)(C)C)CO2
EC50: 1000 to 3000 nM
--
COMPOUND: Cc1cccc(C)c1-c1cc2nc(n1)NS(=O)(=O)c1cccc(c1)C(=O)N(Cc1cnc3oc(C(C)(C)C)cc3n1)[C@H](CC(C)(C)C)CO2
EC50: < 1000 nM
--
COMPOUND: Cc1cccc(C)c1-c1cc2nc(n1)NS(=O)(=O)c1cccc(c1)C(=O)N(Cc1cnc3oc(C4CCOCC4)cc3n1)[C@H](CC1(C)CC1)CO2
EC50: 3000 to 30000 nM

Continue with the next compound.
Input: Would you mind telling me what EC50 value was observed for `CCc1cccc(CC)c1-c1nc2nc(c1C)OC[C@@H](CC(C)(C)C)N(Cc1cnc3cc(C4(C)CC4)n(C)c3n1)C(=O)c1cccc(c1)S(=O)(=O)N2` ?
Output: 1000 to 3000 nM
